# target or system: T1, EsCas13d, nuclease-dead (Eubacterium siraeum, UniProt B0MS50, R295A;H300A;R849A;H854A)
# T1 sequence: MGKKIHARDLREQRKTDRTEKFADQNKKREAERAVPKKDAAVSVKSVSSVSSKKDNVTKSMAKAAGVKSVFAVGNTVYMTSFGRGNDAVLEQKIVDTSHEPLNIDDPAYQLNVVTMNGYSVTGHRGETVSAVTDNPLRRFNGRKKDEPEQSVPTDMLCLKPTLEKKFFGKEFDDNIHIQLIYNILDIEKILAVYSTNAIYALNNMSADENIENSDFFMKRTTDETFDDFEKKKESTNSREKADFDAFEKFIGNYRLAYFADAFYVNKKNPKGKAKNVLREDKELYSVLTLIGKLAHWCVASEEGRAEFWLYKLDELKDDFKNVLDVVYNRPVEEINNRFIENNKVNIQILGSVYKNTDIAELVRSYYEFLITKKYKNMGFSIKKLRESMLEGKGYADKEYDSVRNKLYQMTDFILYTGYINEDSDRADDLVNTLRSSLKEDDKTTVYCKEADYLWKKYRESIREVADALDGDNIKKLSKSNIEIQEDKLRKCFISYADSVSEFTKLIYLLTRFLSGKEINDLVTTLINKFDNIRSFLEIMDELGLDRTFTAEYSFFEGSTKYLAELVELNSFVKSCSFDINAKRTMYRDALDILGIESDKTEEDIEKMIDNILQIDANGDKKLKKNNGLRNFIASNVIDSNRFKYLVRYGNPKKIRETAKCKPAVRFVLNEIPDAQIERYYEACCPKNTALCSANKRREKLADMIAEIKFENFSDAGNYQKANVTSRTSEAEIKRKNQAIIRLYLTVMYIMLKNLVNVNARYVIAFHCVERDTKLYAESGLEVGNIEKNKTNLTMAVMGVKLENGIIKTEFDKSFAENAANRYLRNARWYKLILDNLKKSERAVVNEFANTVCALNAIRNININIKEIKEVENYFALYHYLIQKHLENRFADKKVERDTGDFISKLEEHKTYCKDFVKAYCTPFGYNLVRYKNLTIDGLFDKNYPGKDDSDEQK
# protocol summary: crRNA (strand 1, pre-loaded); Mg2+; 40 mM Tris-HCl pH 7.5, 150 mM NaCl, 6 mM MgCl2, 1 mM DTT, 0.1% Tween-20, 0.2 mg/ml BSA; 25 C; 10 min per concentration, then washed
# assay context: tags: His6-TwinStrep-SUMO cleaved; N-terminal SNAP kept (SNAP-Surface 488); label: 3' end held by stalled T7 RNA polymerase
Mark each entry Criterion met if its Kd sits below 10 nM, and Criterion not met for all others.

>>> category_label("target 2 MT 5'PFS UCU 3'PFS ACA (mixed) RNA 1: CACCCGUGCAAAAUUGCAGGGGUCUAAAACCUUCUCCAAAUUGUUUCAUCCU RNA 2: GGGAAUGGAUCCACAUCUACGAAUUCUCUAGGAUGAAACAAUUUGGAGAAGACAAGAUCGGAAGAGCACACGU")
"Criterion met"
>>> category_label("target 1 MT 5'PFS GAA 3'PFS AUU (mixed) RNA 1: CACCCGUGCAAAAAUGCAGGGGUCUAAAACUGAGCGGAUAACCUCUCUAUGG RNA 2: GGGAAUGGAUCCACAUCUACGAAUUCGAACCAUAGAGAGGUUAUCCGCUCAAUUAGAUCGGAAGAGCACACGU")
"Criterion not met"
>>> category_label("target 1 C2G,U11G (mixed) RNA 1: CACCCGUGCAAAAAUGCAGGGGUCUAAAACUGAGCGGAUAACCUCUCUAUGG RNA 2: GGGAAUGGAUCCACAUCUACGAAUUCGUACCAUAGAGAGGGUAUCCGCUGACCGAGAUCGGAAGAGCACACGU")
"Criterion not met"
>>> category_label("target 2 MT 5'PFS CUU 3'PFS AGU (mixed) RNA 1: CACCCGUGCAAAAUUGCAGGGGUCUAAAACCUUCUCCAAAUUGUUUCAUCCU RNA 2: GGGAAUGGAUCCACAUCUACGAAUUCCUUAGGAUGAAACAAUUUGGAGAAGAGUAGAUCGGAAGAGCACACGU")
"Criterion met"
>>> category_label("target 2 MT 5'PFS GGC 3'PFS CUA (mixed) RNA 1: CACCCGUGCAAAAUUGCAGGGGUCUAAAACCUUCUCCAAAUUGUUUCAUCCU RNA 2: GGGAAUGGAUCCACAUCUACGAAUUCGGCAGGAUGAAACAAUUUGGAGAAGCUAAGAUCGGAAGAGCACACGU")
"Criterion not met"
>>> category_label("target 2 MT 5'PFS CGC 3'PFS UUC (mixed) RNA 1: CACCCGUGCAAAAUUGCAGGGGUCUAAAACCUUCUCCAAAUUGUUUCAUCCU RNA 2: GGGAAUGGAUCCACAUCUACGAAUUCCGCAGGAUGAAACAAUUUGGAGAAGUUCAGAUCGGAAGAGCACACGU")
"Criterion not met"
>>> category_label("target 1 insG 3' of 21,insG 3' of 9 (mixed) RNA 1: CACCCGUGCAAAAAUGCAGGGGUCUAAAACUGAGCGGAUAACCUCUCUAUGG RNA 2: GGGAAUGGAUCCACAUCUACGAAUUCGUACCGAUAGAGAGGUUAGUCCGCUCACCGAGAUCGGAAGAGCACACGU")
"Criterion not met"
>>> category_label("target 1 C6A,C22U (mixed) RNA 1: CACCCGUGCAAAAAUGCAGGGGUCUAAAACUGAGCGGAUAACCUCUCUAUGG RNA 2: GGGAAUGGAUCCACAUCUACGAAUUCGUAUCAUAGAGAGGUUAUCAGCUCACCGAGAUCGGAAGAGCACACGU")
"Criterion not met"
